# credit: patent US11147792B2

- measurement_target: E. coli CsgA (Escherichia coli)
- Construct: made in house; host or cells: E. coli NEB 3016 slyD::kan, pET11d
- Sequence (P28307 23-151): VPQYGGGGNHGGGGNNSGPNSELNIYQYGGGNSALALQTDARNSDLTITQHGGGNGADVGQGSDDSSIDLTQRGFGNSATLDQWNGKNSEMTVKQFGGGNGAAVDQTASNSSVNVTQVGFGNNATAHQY
- experimental_details: In vitro ThioflavinT assay of CsgA aggregation
- Format: biochemical
- reported_conditions: read-out: Inhibition of Aggregation CsgA (compound activity range), compounds at 20 μM; CsgA at 20 μM; ThT fluorescence at 18 hours
readout: inhibition at 20 µM

**Query** Look up inhibition at 20 µM for this compound: O=C(O[C@@H]1Cc2c(O)cc(O)cc2O[C@@H]1c1cc(O)c(O)c(O)c1)c1cc(O)c(O)c(O)c1 [EGCG, epigallocatechin gallate]
**Result** 30 to 60%

**Query** Same thing, different compound: Oc1ccc(/C=C/c2cc(O)cc(O)c2)cc1 [resveratrol, (E)-5-(4-hydroxystyryl)benzene-1,3-diol]
**Result** > 60%

**Query** Same thing, different compound: Cc1ccc(C(C)C)c(O)c1
**Result** -10 to 10%

**Query** Same thing, different compound: O=c1c(O)c(-c2ccc(O)c(O)c2)oc2cc(O)cc(O)c12
**Result** 30 to 60%

**Query** Same thing, different compound: O=C(/C=C/c1ccc(O)c(O)c1)O[C@H](Cc1ccc(O)c(O)c1)C(=O)O
**Result** 30 to 60%

More entries:
**Query** Look up inhibition at 20 µM for this compound: COc1ccccc1O
**Result** -10 to 10%

**Query** Same thing, different compound: O=C(CCc1ccc(O)cc1)c1c(O)cc(O)cc1O
**Result** 10 to 30%

**Query** Same thing, different compound: O=C(O)c1cc(O)c(O)c(O)c1 [gallic acid, 3,4,5-trihydroxybenzoic acid]
**Result** > 60%

###

- measurement_target: human α-synuclein (Homo sapiens, UniProt P37840)
- Construct: made in house; host or cells: E. coli
- experimental_details: In vitro Thioflavin T assay of α-synuclein aggregation
- Assay type: biochemical
- reported_conditions: compounds at 50 μM; 50 μM α-synuclein; ThT fluorescence at 40 hours; read-out: Inhibition of Aggregation αSyn (compound activity range)
- Description: In Vitro Thioflavin T Assay to Determine the Effects of Compounds on α-Synuclein Aggregation. The ammonium sulfate pellet was washed with an equal volume of 100 mM ammonium acetate in ethanol, pelleted via centrifugation, washed twice with ethanol, dried overnight, resuspended in 10 mM Tris pH 7.4, and passed through a 50 kDa cut-off column. […] Readings were performed hourly for up to 73 hours. […]
readout: inhibition at 50 µM

**Query** API: value(readout= inhibition at 50 µM, system= human α-synuclein (Homo sapiens, UniProt P37840), query= CCc1ccc(O)c(OC)c1 [4-ethyl guaiacol, 4-ethyl-2-methoxyphenol] )
**Result** -10 to 10%

**Query** Same thing, different compound: CC(Cc1ccc(O)c(O)c1)C(C)Cc1ccc(O)c(O)c1 (stereo not shown) [NDGA]
**Result** 30 to 60%

**Query** Same thing, different compound: O=c1c(O)c(-c2ccc(O)cc2O)oc2cc(O)cc(O)c12 [morin]
**Result** > 60%

More entries:
**Query** API: value(readout= inhibition at 50 µM, system= human α-synuclein (Homo sapiens, UniProt P37840), query= CCCCCCCCCCCCOC(=O)c1cc(O)c(O)c(O)c1 [lauryl gallate, dodecyl 3,4,5-trihydroxybenzoate] )
**Result** 30 to 60%

**Query** Same thing, different compound: COc1ccccc1O [guaiacol, 2-methoxyphenol]
**Result** -10 to 10%

**Query** Same thing, different compound: O=C(O)c1cc(O)c(O)c(O)c1 [gallic acid, 3,4,5-trihydroxybenzoic acid]
**Result** > 60%

**Query** Same thing, different compound: C/C=C/c1ccc(O)c(OC)c1 [isoeugenol, 2-methoxy-4-(prop-1-en-1-yl)phenol]
**Result** -10 to 10%

**Query** Same thing, different compound: COc1cc(O)ccc1O [methoxy-hydroquinone, 2-methoxybenzene-1,4-diol]
**Result** > 60%

**Query** Same thing, different compound: O=C(CCc1ccc(O)cc1)c1c(O)cc(O)cc1O [phloretin]
**Result** 30 to 60%

**Query** Same thing, different compound: O=C(O[C@@H]1Cc2c(O)cc(O)cc2O[C@@H]1c1cc(O)c(O)c(O)c1)c1cc(O)c(O)c(O)c1 [EGCG, epigallocatechin gallate]
**Result** > 60%
